Molecular target: 5-HT2A receptors (UniProt P14842)
Listing of entries alongside the reported pIC50.
Remember the convention: pIC50 equals -log10 of concentration in molar.

These solved cases illustrate the format of a correct answer.
molecule="CN1CCN(Cc2cnn(-c3ccc(-c4ccc(F)cc4)cc3)c2-c2ccsc2)CC1 [Example 556]" measured_on="5-HT2A receptors (UniProt P14842)" metric_name=pIC50 result_number=8.11
molecule="CN1CCN(Cc2cnn(-c3ccc(-c4ccc5c(c4)OCO5)cc3)c2-c2ccco2)CC1 [Example 550]" measured_on="5-HT2A receptors (UniProt P14842)" metric_name=pIC50 result_number=8.24
molecule="COc1ccc(-c2ccc(-n3ncc(CN4CCN(C)CC4)c3-c3ccccc3F)cc2)cc1F [Example 585]" measured_on="5-HT2A receptors (UniProt P14842)" metric_name=pIC50 result_number=7.72

Which measured pIC50 value corresponds to CN1CCN(Cc2cnn(-c3ccc(-c4ccc[nH]4)cc3)c2-c2ccccc2F)CC1 [Example 653] ? 7.24

Which measured pIC50 value corresponds to COc1ccc(-c2ccc(-n3ncc(CN4CCN(C)CC4)c3-c3ccco3)cc2)cc1 [Example 546] ? 8.32

Which measured pIC50 value corresponds to Fc1ccc(-c2ccc(-n3ncc(CN4CCN(C5CCCC5)CC4)c3-c3ccco3)nc2)cc1 [Example 591] ? 7.70

Which measured pIC50 value corresponds to CCN1CCN(Cc2cnn(-c3ccc(-c4ccc(F)cc4)cc3)c2-c2occc2C)CC1 [Example 536] ? 8.52

Which measured pIC50 value corresponds to COc1ccc(-c2ccc(-n3ncc(CNCc4cc5ccccc5n4C)c3-c3ccco3)cc2)cc1 [Example 695] ? 6.52

Which measured pIC50 value corresponds to CCN(CC)Cc1cnn(-c2ccc(-c3ccc(F)cc3)cn2)c1-c1ccco1 [Example 675] ? 6.89

Which measured pIC50 value corresponds to OC1CCCN(Cc2cnn(-c3ccc(-c4ccc(F)cc4)cc3)c2-c2ccco2)C1 (centres unmarked) [Example 646] ? 7.30

Which measured pIC50 value corresponds to CCN1CCN(Cc2cnn(-c3ccc(-c4ccc5c(c4)OCO5)cc3)c2-c2ccco2)CC1 [Example 533] ? 8.80

Which measured pIC50 value corresponds to Cc1ccoc1-c1c(CN2CCC(O)C2)cnn1-c1ccc(-c2ccc(F)cc2)cc1 (centres unmarked) [Example 596] ? 7.66

Which measured pIC50 value corresponds to CN(CCC#N)Cc1cnn(-c2ccc(-c3ccc(F)cc3)cc2)c1-c1ccco1 [Example 669] ? 7.02

Which measured pIC50 value corresponds to CN1CCN(Cc2cnn(-c3ccc(-c4ccc(F)cc4)cc3)c2-c2ccoc2)CC1 [Example 586] ? 7.72

Which measured pIC50 value corresponds to Fc1ccc(-c2ccc(-n3ncc(CN4CCN(CCN5CCCC5)CC4)c3-c3ccco3)cc2)cc1 [Example 633] ? 7.39

Which measured pIC50 value corresponds to CN1CCN(c2cnn(-c3ccc(-c4ccc5c(c4)OCO5)cc3)c2-c2ccccc2)CC1 [Example 565] ? 8.00

Which measured pIC50 value corresponds to c1coc(-c2c(CN3CCN(C4CCCC4)CC3)cnn2-c2ccc(-c3ccc4c(c3)OCCO4)cc2)c1 [Example 554] ? 8.15
